These entries and their values trace back to PubChem BioAssay (Tox21).

# TESTED_SYSTEM: Nuclear receptor subfamily 1 group I member 2 (Homo sapiens) (UniProt O75469)
# PROTOCOL_DESCRIPTION: Human pregnane X receptor (PXR) activation by small molecules, qHTS assay (AID 1346985); note: nearly all actives have a fitted effect of over 40% in size
# PARTICULARS: DPX-2 HepG2 CYP3A4-luciferase, 24 h; series mostly up to 38.3 µM
Results filed as inconclusive are left out. Calls of active or inactive are those of the source. Calls come from the whole dose curve; as a rule, active = well fitted activation curve with a large enough effect in the repeat runs; inconclusive = weak or mixed curves; inactive = flat fitted curve, though single readings scatter. Positions of bridges follow the written chain, without caps; N, C: chain ends. Non-standard residues stand in square brackets, D forms with d. Residues, ends and D or L forms follow the SMILES beside them. ξ: configuration not given here. *: point of attachment. d(aThr) = C[C@@H](O)[C@@H](N)C(=O)O; ξThr(3R) = C[C@@H](O)C(N)C(=O)O; X3 = CC[C@@H](C)CCCCC(=O)*; dDab = NCC[C@@H](N)C(=O)O
METRIC_NAME: outcome

[
  {
    "COMPOUND": "NCc1ccccc1CC(=O)N[C@@H]1C(=O)N2C(C(=O)O)=C(CSc3nnnn3CC(=O)O)CS[C@H]12",
    "TESTED_SYSTEM": "Nuclear receptor subfamily 1 group I member 2 (Homo sapiens) (UniProt O75469)",
    "READOUT_VALUE": "inactive"
  },
  {
    "COMPOUND": "CC(C)(CO)[C@@H](O)C(=O)NCCC(=O)NCCSSCCNC(=O)CCNC(=O)[C@H](O)C(C)(C)CO",
    "TESTED_SYSTEM": "Nuclear receptor subfamily 1 group I member 2 (Homo sapiens) (UniProt O75469)",
    "READOUT_VALUE": "inactive"
  },
  {
    "COMPOUND": "CC[C@@H](C)CCCCC(=O)N[C@H](CCN)C(=O)N[C@@H](C(=O)N[C@H](CCN)C(=O)N[C@@H]1CCNC(=O)C([C@@H](C)O)NC(=O)[C@@H](CCN)NC(=O)[C@@H](CCN)NC(=O)[C@@H](CC(C)C)NC(=O)[C@@H](Cc2ccccc2)NC(=O)[C@@H](CCN)NC1=O)[C@@H](C)O (stereo partly drawn) (X3-[dDab][d(aThr)][dDab][dDab][dDab][dF][dL][dDab][dDab][ξThr(3R)]; lactam 4-C)",
    "TESTED_SYSTEM": "Nuclear receptor subfamily 1 group I member 2 (Homo sapiens) (UniProt O75469)",
    "READOUT_VALUE": "inactive"
  }
]

* * *

# PROTOCOL_DESCRIPTION: qHTS assay for identifying genotoxic compounds that show differential cytotoxicity against isogenic chicken DT40 cell lines with known DNA damage response pathways - Rad54/Ku70 mutant cell line (AID 743015); note: nearly all actives have a fitted effect of over 60% in size
# PARTICULARS: DT40 Rad54/Ku70 mutant viability, CellTiter-Glo, 40 h; series mostly up to 66.8 µM
Records with an inconclusive call do not appear. The source made the active and inactive calls. Calls come from the whole dose curve; as a rule, active = well fitted cell-killing curve with a large enough effect in the repeat runs; inconclusive = weak or mixed curves; inactive = no such curve, though single readings can be large or run the other way.
Outcome codes: active, inactive

[
  {
    "COMPOUND": "COC(=O)CCC[N+](C)(C)C",
    "ANSWER_LABEL": "inactive"
  },
  {
    "COMPOUND": "O=C1c2ccccc2C(=O)C1c1ccc(Cl)cc1",
    "ANSWER_LABEL": "inactive"
  },
  {
    "COMPOUND": "C[C@@H]1CCC2[C@@H](C)[C@@H](O)O[C@@H]3O[C@@]4(C)CC[C@@H]1[C@@]23OO4 (stereo not given in full)",
    "ANSWER_LABEL": "active"
  },
  {
    "COMPOUND": "FCOC(C(F)(F)F)C(F)(F)F",
    "ANSWER_LABEL": "inactive"
  },
  {
    "COMPOUND": "COC(=O)C1=C(C)NC(C)=C(C(=O)O[C@H]2CCN(Cc3ccccc3)C2)[C@H]1c1cccc([N+](=O)[O-])c1",
    "ANSWER_LABEL": "active"
  },
  {
    "COMPOUND": "CN1CCN(CCCN2c3ccccc3Sc3ccccc32)CC1",
    "ANSWER_LABEL": "active"
  },
  {
    "COMPOUND": "COc1ccc(C2(C#N)CCC(C(=O)O)CC2)cc1OC1CCCC1 (stereo not given)",
    "ANSWER_LABEL": "inactive"
  },
  {
    "COMPOUND": "CN(C)CCCN1c2ccccc2C(C)(C)c2ccccc21",
    "ANSWER_LABEL": "active"
  },
  {
    "COMPOUND": "COc1ccc(CCNC[C@H](O)c2ccc(O)cc2)cc1OC",
    "ANSWER_LABEL": "inactive"
  },
  {
    "COMPOUND": "CC(C)(C)CC(=O)OCC(=O)[C@@]12OC(C)(C)O[C@@H]1C[C@H]1[C@@H]3CCC4=CC(=O)C=C[C@]4(C)[C@@]3(F)[C@@H](O)C[C@@]12C",
    "ANSWER_LABEL": "inactive"
  },
  {
    "COMPOUND": "CCCCCCCCCCCCCCCCCC(=O)OC[C@@H](O)[C@H]1OC[C@H](O)[C@H]1O",
    "ANSWER_LABEL": "inactive"
  },
  {
    "COMPOUND": "Cn1cc(NC(=O)c2cc(NC(=O)c3cc(NC=O)cn3C)cn2C)cc1C(=O)NCCC(=N)N",
    "ANSWER_LABEL": "inactive"
  },
  {
    "COMPOUND": "CCN1C(=O)NC(c2ccccc2)C1=O (stereo not given)",
    "ANSWER_LABEL": "inactive"
  },
  {
    "COMPOUND": "C[C@]12CC[C@@H]3c4ccc(O)cc4CC[C@H]3[C@@H]1CC[C@@H]2OP(=O)(O)O",
    "ANSWER_LABEL": "inactive"
  },
  {
    "COMPOUND": "NC(=O)OCC(O)COc1ccc(Cl)cc1 (stereo not given)",
    "ANSWER_LABEL": "inactive"
  },
  {
    "COMPOUND": "Cc1c(Cl)cccc1Nc1ncccc1C(=O)O",
    "ANSWER_LABEL": "inactive"
  },
  {
    "COMPOUND": "Cc1ccc(S(=O)(=O)NC(=O)N[C@@H](C)Cc2ccccc2)cc1",
    "ANSWER_LABEL": "inactive"
  },
  {
    "COMPOUND": "Cc1nc(NS(=O)(=O)c2ccc(N)cc2)nc(C)c1Br",
    "ANSWER_LABEL": "inactive"
  },
  {
    "COMPOUND": "C=C1C(=C/C=C2\\CCC[C@]3(C)[C@@H]([C@H](C)/C=C/[C@H](C)C(C)C)CC[C@@H]23)C[C@@H](O)C[C@@H]1O",
    "ANSWER_LABEL": "active"
  },
  {
    "COMPOUND": "CC1(C)S[C@@H]2[C@H](NC(=O)[C@H](N)c3ccccc3)C(=O)N2[C@H]1C(=O)OCOC(=O)[C@@H]1N2C(=O)C[C@H]2S(=O)(=O)C1(C)C",
    "ANSWER_LABEL": "inactive"
  }
]
